- measurement-target: human SCD1 (Homo sapiens, UniProt O00767)
- Construct: expressed in transfected cells; host or cells: yeast strain with OLE1 deleted, plasmid-borne human SCD1 (selected in SD-Ura)
- Sequence (O00767 whole entry): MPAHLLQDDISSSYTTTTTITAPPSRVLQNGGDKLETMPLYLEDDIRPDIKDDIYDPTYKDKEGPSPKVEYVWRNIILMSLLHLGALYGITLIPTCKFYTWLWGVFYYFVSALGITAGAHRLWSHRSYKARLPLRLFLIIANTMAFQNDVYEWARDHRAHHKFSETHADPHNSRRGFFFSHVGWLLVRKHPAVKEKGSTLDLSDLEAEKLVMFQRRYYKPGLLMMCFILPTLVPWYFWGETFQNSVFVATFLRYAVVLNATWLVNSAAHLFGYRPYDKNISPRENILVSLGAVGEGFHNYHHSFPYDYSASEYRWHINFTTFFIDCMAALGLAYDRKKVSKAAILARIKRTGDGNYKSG
- assay-remarks: Growth inhibition of yeast strain expressing human SCD1 as sole desaturase (OLE1 deleted), OD600 readout
- Type: cell-based
- assay-conditions: yeast strain expressing human SCD1 as sole desaturase; growth (OD600) after 40 h at 30° C.; read-out: SCD1 IC50
pIC50: −log10 of the molar value.
readout-label: pIC50

Answered examples (5):
[ask] Which measured pIC50 value corresponds to Cc1nccc(C(=O)Nc2ccc(Cc3cccc(Cl)c3)cn2)n1 [Compound 114] ?
[reply] 7.30

[ask] Which measured pIC50 value corresponds to O=C(Nc1ccc(Cc2cccc(Cl)c2)cn1)c1ccc(C(F)F)nc1 [Compound 295] ?
[reply] 4.65

[ask] Which measured pIC50 value corresponds to N#Cc1cnc(NC(=O)c2ccc(Cc3cccc(F)c3)cn2)nc1 [Compound 627] ?
[reply] 6.49

[ask] Which measured pIC50 value corresponds to Cc1nccc(C(=O)Nc2ccc(Cc3cc(F)cc(F)c3)cn2)n1 [Compound 242] ?
[reply] 7.30

[ask] Which measured pIC50 value corresponds to Cn1cc(NC(=O)c2ccc(Cc3cccc(F)c3)cn2)ccc1=O [Compound 357] ?
[reply] 5.39

[a] N#Cc1cc(F)cc(Cc2ccc(NC(=O)c3cnc(C#N)cn3)nc2)c1 [Compound 655]
[b] O=C(Nc1ccc(Cc2cccc(F)c2)cn1)c1ccn(C2CC2)n1 [Compound 285]
[c] COc1nccc(C(=O)Nc2ccc(Cc3cccc(F)c3)cn2)n1 [Compound 364]
[d] Cn1cc(-c2cnc(NC(=O)Cc3cccc(F)c3)cn2)ccc1=O [Compound 359]
[e] Cn1cc(C(=O)Nc2ccc(Cc3cccc(F)c3F)cn2)ccc1=O [Compound 552]
[ask] Sort ascending by pIC50. Lab note: final answer is the ordered label list.
[reply] d, b, e, c, a

Attribution: patent US20230078764A1
